target: recombinant human DPP-1 (Cathepsin C) (Homo sapiens, UniProt P53634); test: DPP-1 Inhibition Assay (in vitro), fluorogenic substrate GR-AMC; settings: 0.15 nM DPP-1, 10 uM GR-AMC, pH 7.0, room temperature; average value where tested multiple times
Sequence (P53634 25-463): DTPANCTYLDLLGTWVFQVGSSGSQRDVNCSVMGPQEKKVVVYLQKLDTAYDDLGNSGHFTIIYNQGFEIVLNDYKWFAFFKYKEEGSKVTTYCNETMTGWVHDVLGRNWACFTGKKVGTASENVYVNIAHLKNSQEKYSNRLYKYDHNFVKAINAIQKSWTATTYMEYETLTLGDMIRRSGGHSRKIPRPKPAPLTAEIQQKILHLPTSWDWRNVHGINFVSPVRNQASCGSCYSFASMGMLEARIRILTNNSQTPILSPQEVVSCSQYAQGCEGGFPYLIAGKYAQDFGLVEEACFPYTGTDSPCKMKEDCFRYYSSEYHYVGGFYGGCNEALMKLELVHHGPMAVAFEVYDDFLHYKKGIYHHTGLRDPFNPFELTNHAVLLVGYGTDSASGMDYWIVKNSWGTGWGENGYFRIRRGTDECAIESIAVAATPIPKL
Some compounds, each annotated with its measured log10 of IC50.
Give log10 of IC50, with IC50 taken in µM.

Field: example entries. Status: answers known.
* CCN(CCCc1cc2cc(C(=O)Nc3ccc(OC)c(OC)c3)ccc2[nH]1)C(=O)[C@@H](N)Cc1cccs1 | -0.43
* CC[C@H](N)C(=O)NCCCc1cc2cc(C(=O)Nc3ccc4[nH]cnc4c3)ccc2o1 | 0.38
* CC[C@H](N)C(=O)NCCCc1cc2cc(C(=O)Nc3cccc(Cl)c3)ccc2[nH]1 | -0.10
* CC[C@H](N)C(=O)NCCc1nc2ccccc2[nH]1 | 0.81
* COc1ccc(-c2ccc3[nH]c(C4CCN(C(=O)[C@@H](N)Cc5ccsc5)CC4)cc3c2)cc1OC | 0.34
* CC[C@H](N)C(=O)NCCCc1cc2cc(-c3ccncc3)ccc2[nH]1 | -0.17
* CC[C@H](N)C(=O)NCCCc1cc2cc(C(=O)Nc3ccccc3OC)ccc2[nH]1 | 0.00
* CC[C@H](N)C(=O)NCCCc1cc2cc(-c3cc(OC)cc(OC)c3)ccc2[nH]1 | -0.43
* CC[C@H](N)C(=O)NCCCc1cc2cc(C(=O)Nc3ccc4ncccc4c3)ccc2o1 | -0.70
* COc1ccc(-c2ccc3[nH]c(C4CCN(C(=O)[C@@H](N)Cc5cccs5)CC4)cc3c2)cn1 | -0.60

Req: So what's the measured log10 of IC50 for this one? "COc1ccc(NC(=O)c2ccc3[nH]c(CCCNC(=O)[C@@H](N)Cc4nccs4)cc3c2)cc1OC"
Resp: -1.09

Req: What about "COc1ccc(-c2ccc3[nH]c(C4CCN(C(=O)[C@@H](N)Cc5cccs5)CC4)cc3c2)cc1" ?
Resp: -0.48

Req: For "CC[C@H](N)C(=O)NCCCc1cc2cc(C(=O)Nc3ccc4ncsc4c3)ccc2o1" then?
Resp: -0.15

Req: What would you report for "COc1ccc(NC(=O)c2ccc3[nH]c(CCCNC(=O)[C@@H](N)Cc4cccs4)cc3c2)cc1OC" ?
Resp: -1.62

Req: Thanks! And "CC[C@H](N)C(=O)NCCCc1cc2cc(-c3cccc(C(N)=O)c3)ccc2[nH]1" ?
Resp: -0.41

Req: Field entry: "CC[C@H](N)C(=O)NCCCc1cc2cc(C(=O)Nc3cccnc3)ccc2o1"
Resp: 0.60
